FYI, the data here is from patent US20070027118A1.

# Target Desc: 11β-hsd-1 enzyme (Homo sapiens)
# Sequence (P28845 whole entry, species assumed): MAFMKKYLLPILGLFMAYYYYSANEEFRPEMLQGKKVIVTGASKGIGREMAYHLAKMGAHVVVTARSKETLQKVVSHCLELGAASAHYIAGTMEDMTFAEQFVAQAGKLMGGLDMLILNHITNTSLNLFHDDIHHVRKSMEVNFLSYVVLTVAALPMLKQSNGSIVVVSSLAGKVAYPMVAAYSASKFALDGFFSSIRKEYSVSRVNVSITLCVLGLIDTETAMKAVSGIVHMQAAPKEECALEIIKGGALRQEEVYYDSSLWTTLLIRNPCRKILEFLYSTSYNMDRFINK
# Test Summary: biochemical
# Measurement Conditions: Table 2; inhibitor 0.1 mM as printed; read-out: % Inh @ 0.1 mM
Tag: YES if measured inhibition at 100 µM is not below 90%, NO if it is.

Compound: Cc1ccc(N2CCN(S(=O)(=O)Nc3cccc(C)n3)CC2=O)cc1
Answer Label: NO
//
Compound: Cc1cccc(NS(=O)(=O)N2CCCN(c3nc4cc(Cl)ccc4o3)CC2)n1
Answer Label: YES
//
Compound: O=C1CN(S(=O)(=O)Nc2ccc3ccccc3n2)CCN1Cc1ccc(F)cc1
Answer Label: NO
//
Compound: CCc1cccc(NS(=O)(=O)N2CCN(c3ccccn3)CC2)n1
Answer Label: NO
//
Compound: O=S(=O)(Nc1ccc2ccccc2n1)N1CCCCCC1 [Example 157, N-quinolin-2-ylazepane-1-sulfonamide]
Answer Label: YES
//
Compound: CCc1cccc(NS(=O)(=O)N2CCN(c3nc4ccc(Cl)cc4o3)CC2)n1
Answer Label: YES
//
Compound: CCc1cccc(NS(=O)(=O)N2CCN(c3cccc(OC)n3)CC2)n1
Answer Label: YES
//
Compound: CCc1cccc(NS(=O)(=O)N2CCC(Cc3cc(F)ccc3C)CC2)n1
Answer Label: YES
//
Compound: Cc1cccc(NS(=O)(=O)N2CCN(c3nc4ccc(Cl)cc4o3)CC2)n1
Answer Label: YES
